// cross-study collection: pKi for Carbonic anhydrase 3 (Homo sapiens, UniProt P07451)
pKi: −log10 of the molar value.
Classification field: Yes = pKi at or over 4; No = pKi under 4.

Below, 4 molecules whose answers are already recorded.
given_smiles=NS(=O)(=O)c1ccc(CCO)cc1 class_label=No
given_smiles=NCCCCCCN class_label=Yes
given_smiles=NS(=O)(=O)c1ccc2[nH]c(-c3cscn3)nc2c1 class_label=Yes
given_smiles=Nc1ccc(S(N)(=O)=O)cc1Cl class_label=No

Query: Hello, I need to know if O=c1oc2c(O)c(O)cc3c(=O)oc4c(O)c(O)cc1c4c23 has measured pKi not below 4. Thanks!
Reply: Yes
